- MEASUREMENT DESCRIPTION: Total plasma concentration in Crl:CD(SD) rat at 50 mg/kg/day, po daily via gavage for 14 days measured on day 14 post last dose up to 24 hrs
- Format: ADME, organism-based
- EXPERIMENTAL CONTEXT: in vivo
MEASURED ENDPOINT: concentration (µM)
Numeric answer only, unit µM assumed.

Given item Cc1cnc2c(c1)nnn2-c1ccc(C(=O)N(c2ncccc2Cl)[C@@H]2CCCNC2)nc1 , the value recorded as its concentration is 15.9

* * *

- ASSAYED SYSTEM: 80S Ribosome
- MEASUREMENT DESCRIPTION: Binding affinity to 80S ribosome in human HuH7 cells assessed as inhibition of PCSK9 mRNA translation after overnight incubation by ELISA
- Format: cell-based
- EXPERIMENTAL CONTEXT: huh-7
MEASURED ENDPOINT: pIC50
Scale for pIC50: -log10 of concentration given in mol/L; no unit attached.

Examples with their reported pIC50 follow.
                                   compound  assayed_system  number
0  Cc1cnc2c(c1)nnn2-c1ccc(C(=O)N(c2ncccc2Cl)[C@@H]2CCCNC2)cc1    80S Ribosome    6.11
1  O=C(c1ccc(-c2cnccn2)cc1)N(c1nccc2ccccc12)[C@@H]1CCCNC1    80S Ribosome    5.03
2  O=C(c1ccc(-n2nnc3cccnc32)cc1)N(c1ncccc1Cl)[C@@H]1CCCNC1    80S Ribosome    6.09
3  Cc1cnc2c(c1)nnn2-c1ccc(C(=O)N(c2ncccc2Cl)[C@@H]2CCCNC2)nc1    80S Ribosome    5.86

Measured pIC50 for this entry Cn1cc(-c2ccc(C(=O)N(c3nccc4ccccc34)[C@@H]3CCCNC3)cc2)cn1 on 80S Ribosome: 5.62
